The origin of these recorded values is patent US7691848B2.

Field: melting point. Provide a value for each of the compounds that follow.

Query: Dear colleague, I am looking for the recorded melting point of the following compound: Cc1ccccc1-c1ccc(C(=O)N2Cc3ccc(C(=O)NC(C)CCc4ccccc4)n3Cc3ccccc32)cc1C (stereo not shown) [Example 32]
Response: 152 to 154 °C

Query: Record: Cc1ccccc1-c1ccc(C(=O)N2Cc3ccc(C(=O)NCc4ccccc4)n3Cc3ccccc32)cc1C [Example 15]
Response: 138 to 141 °C

Query: Record: Cc1ccccc1CNC(=O)c1ccc2n1Cc1ccccc1N(C(=O)c1ccc(-c3ccccc3C)c(C)c1)C2 [Example 17]
Response: 128 to 130 °C

Query: Record: CCOC(=O)c1cccc(NC(=O)c2ccc3n2Cc2ccccc2N(C(=O)COc2ccc(Cl)cc2)C3)c1 [Example 99]
Response: 179 to 180 °C
